Sourced from paper PMC6598531

- TESTED_SYSTEM: hCA I (Homo sapiens, UniProt P00915)
- Sequence (P00915 whole entry): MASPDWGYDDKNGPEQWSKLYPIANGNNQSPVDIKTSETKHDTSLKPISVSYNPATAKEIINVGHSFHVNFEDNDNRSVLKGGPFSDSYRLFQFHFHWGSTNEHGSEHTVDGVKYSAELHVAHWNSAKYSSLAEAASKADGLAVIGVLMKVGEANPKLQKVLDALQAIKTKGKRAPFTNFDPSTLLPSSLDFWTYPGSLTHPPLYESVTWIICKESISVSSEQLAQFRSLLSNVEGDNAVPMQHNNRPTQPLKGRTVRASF
- EXPERIMENTAL_PROTOCOL: stopped flow CO2 hydrase assay, hCA I inhibition
- STATED_CONDITIONS: read-out: KI hCA I; stopped flow CO2 hydrase assay, mean from three assays
For each of the compounds below, state its log10(Ki).
Scale type: logarithmic (base 10). Underlying Ki unit: µM.

The cases that follow already have their log10(Ki) on record.
[
  {
    "COMPOUND": "NS(=O)(=O)c1cc(NC(=O)N[C@@H]2C(O)O[C@@H](CO)[C@H](O)[C@H]2O)c(O)c([N+](=O)[O-])c1 (stereo partly drawn)",
    "log10(Ki)": 0.69
  },
  {
    "COMPOUND": "NS(=O)(=O)c1cc(NC(=O)c2ccc(F)cc2)c(OC(=O)c2ccc(F)cc2)c([N+](=O)[O-])c1",
    "log10(Ki)": 0.47
  },
  {
    "COMPOUND": "NS(=O)(=O)c1cc(NC(=O)Nc2ccc(C(F)(F)F)cc2)c(O)c([N+](=O)[O-])c1",
    "log10(Ki)": 0.72
  },
  {
    "COMPOUND": "Nc1cc(S(N)(=O)=O)cc([N+](=O)[O-])c1O",
    "log10(Ki)": 0.79
  },
  {
    "COMPOUND": "NS(=O)(=O)c1cc(NC(=O)c2ccccc2)c(OC(=O)c2ccccc2)c([N+](=O)[O-])c1",
    "log10(Ki)": 0.14
  },
  {
    "COMPOUND": "COc1cccc(NC(=O)Nc2cc(S(N)(=O)=O)cc([N+](=O)[O-])c2O)c1",
    "log10(Ki)": 0.91
  },
  {
    "COMPOUND": "NS(=O)(=O)c1cc(NC(=O)NCCc2ccccc2)c(O)c([N+](=O)[O-])c1",
    "log10(Ki)": 0.97
  },
  {
    "COMPOUND": "Cc1cc(C)cc(NC(=O)Nc2cc(S(N)(=O)=O)cc([N+](=O)[O-])c2O)c1",
    "log10(Ki)": 0.92
  }
]

// moving on: another record for log10(Ki)
Any idea what log10(Ki) was measured for NS(=O)(=O)c1ccc(O)c([N+](=O)[O-])c1 ?
-0.04

###

- TESTED_SYSTEM: LdcCA (Leishmania infantum, UniProt A4HSV2)
- Sequence (A4HSV2 1-306): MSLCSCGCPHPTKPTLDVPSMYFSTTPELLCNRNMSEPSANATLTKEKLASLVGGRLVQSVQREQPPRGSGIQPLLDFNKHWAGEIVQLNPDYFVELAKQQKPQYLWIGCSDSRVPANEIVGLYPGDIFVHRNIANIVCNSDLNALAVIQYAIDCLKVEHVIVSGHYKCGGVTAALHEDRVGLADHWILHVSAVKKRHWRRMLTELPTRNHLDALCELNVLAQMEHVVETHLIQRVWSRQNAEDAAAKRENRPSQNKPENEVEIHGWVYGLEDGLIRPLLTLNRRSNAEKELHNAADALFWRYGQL
- EXPERIMENTAL_PROTOCOL: biochemical
- STATED_CONDITIONS: read-out: KI LdCA
For each of the molecules below, state its pKi.
One number for each entry, as −log10 of the molar value.

The cases that follow already have their pKi on record.
[
  {
    "MOL": "NS(=O)(=O)c1cc(NC(=O)Nc2ccc(F)cc2)c(O)c([N+](=O)[O-])c1",
    "pKi": 6.01
  },
  {
    "MOL": "NS(=O)(=O)c1cc(NC(=O)NCCc2ccccc2)c(O)c([N+](=O)[O-])c1",
    "pKi": 6.07
  },
  {
    "MOL": "NS(=O)(=O)c1cc(NC(=O)NCc2ccco2)c(O)c([N+](=O)[O-])c1",
    "pKi": 5.99
  }
]

Look up pKi for the entries below, preserving their order.
1. NS(=O)(=O)c1cc(NC(=O)Nc2ccccc2)c(O)c([N+](=O)[O-])c1
2. NS(=O)(=O)c1cc(NC(=O)Nc2c(F)c(F)c(F)c(F)c2F)c(O)c([N+](=O)[O-])c1

5.97
5.87

###

- TESTED_SYSTEM: UniProtKB A4HSV2
- EXPERIMENTAL_PROTOCOL: biochemical
READOUT_LABEL: SI (KI1/KI2) CA I/LdcCA

The cases that follow already have their SI (KI1/KI2) CA I/LdcCA on record.
[
  {
    "COMPOUND": "NS(=O)(=O)c1cc(NC(=O)Nc2ccccc2)c(O)c([N+](=O)[O-])c1 [Compound 13]",
    "SI (KI1/KI2) CA I/LdcCA": ">47.2"
  },
  {
    "COMPOUND": "Cc1cc(C)[n+](-c2cc(S(N)(=O)=O)cc([N+](=O)[O-])c2O)c(C)c1 [Compound 11]",
    "SI (KI1/KI2) CA I/LdcCA": ">7.6"
  },
  {
    "COMPOUND": "NS(=O)(=O)c1cc(NC(=O)Nc2ccc3c(c2)OCO3)c(O)c([N+](=O)[O-])c1 [Compound 19]",
    "SI (KI1/KI2) CA I/LdcCA": ">24.6"
  }
]

// moving on: another record for SI (KI1/KI2) CA I/LdcCA
Any idea what SI (KI1/KI2) CA I/LdcCA was measured for NS(=O)(=O)c1cc(NC(=O)NCc2ccco2)c(O)c([N+](=O)[O-])c1 [Compound 23] ?
>49.0
